endpoint-label: melting point

compound: O=C1Nc2ccccc2C(c2ccccc2)N1C1CCN(CC2CC2)CC1 (configuration not stated)
observed-measurement: 276 to 281 °C

compound: O=C(O)Cc1ccc(OCCNCC(O)c2ccccc2)cc1 (configuration not stated)
observed-measurement: 183 to 184 °C

compound: COc1ccc(CCC(=O)Nc2cc3c(c(C)c2C)OC(C)(C)C3c2ccc(C)cc2)cc1 (configuration not stated)
observed-measurement: 149 to 150 °C

compound: Cn1c(-c2cccs2)nnc1S(C)(=O)=O
observed-measurement: 157 to 159 °C

compound: O=C(O)c1cccc2nc3cc(Br)ccc3nc12
observed-measurement: 268 to 269 °C

compound: Cn1cc(C(=O)NCc2ccc(Cl)cc2)c(=O)c2cc(CC3CCOCC3)ccc21
observed-measurement: 219 to 221 °C

compound: COc1cc2c(cc1OC)-c1c(-c3nc(-c4ccccc4)no3)c(-c3cc(C)c(O)c(C)c3)c(C)n1C(C)C2 (racemic)
observed-measurement: 203 to 206 °C

compound: CCCCNC(=O)[C@@H]1C[C@]2(NC(=O)N(CCCCl)C2=O)c2cc(F)ccc2O1
observed-measurement: 148 to 150 °C

compound: CC(=O)Oc1c2cc(C(F)(F)F)c(C(F)(F)F)cc2c(OC(C)=O)c2cc3ccccc3cc12
observed-measurement: 149 to 153 °C

compound: COc1cc(C(=O)c2ccccc2Cl)cc([N+](=O)[O-])c1O
observed-measurement: 129 to 131 °C

compound: COC(=O)COc1c(Cl)cc(Cl)c(C#N)c1Cl
observed-measurement: 110 to 112 °C

compound: COc1ccc(-c2nc(CNC(=O)C3=NNC(=O)CC3)sc2-c2ccc(OC)cc2)cc1
observed-measurement: 174 to 175 °C

----------
As shown below, each of these compounds has a reported melting point value.
endpoint-label: melting point

compound: CC(C)(O)CCCCc1ccc(CCc2ccc(O)c(O)c2)cc1
observed-measurement: 124 to 126 °C

compound: O=P(c1ccccc1)(c1ccccc1)C(F)F
observed-measurement: 93 to 94 °C

compound: N#Cc1ccc(Sc2cc(Cl)ccc2Cl)c(S(=O)(=O)N2CCNCC2)c1
observed-measurement: 156 to 162 °C

compound: CCc1ccccc1CCC(=O)O
observed-measurement: 87 to 91 °C

compound: O=C(O)c1cn(C2CC2)c2cc(N3CCNC(CF)C3)c(F)cc2c1=O (stereo not drawn)
observed-measurement: 202 to 203 °C

compound: N=C(N[N+](=O)[O-])N1CCCC1
observed-measurement: 188 to 191 °C

compound: NC(=O)Nc1cccc2c1C(=O)c1c-2n[nH]c1-c1csc(Cl)c1
observed-measurement: > 300 °C

compound: O=C(CCO)Nc1cccc(-c2ccc3c(c2)C(c2ccc(Cl)cc2Cl)CC3)c1 (stereo not drawn)
observed-measurement: 202 to 203 °C

----------
Catalogue of melting point values
endpoint-label: melting point

compound: COc1cc(/C=[N+](\[O-])C(C)C)ccc1O
observed-measurement: 178 to 180 °C

compound: O=C1CCC(c2ccc(-c3ccccc3Cl)o2)O1 (stereo not given)
observed-measurement: 101 to 103 °C

compound: CCc1cc(C(=O)O)c(C)o1
observed-measurement: 97 to 99 °C

compound: COc1cc(C2CCN(CC(O)CF)CC2)ccc1Nc1ncc2ccc(-c3ccccc3OC)n2n1 (stereo not given)
observed-measurement: 73 to 79 °C

compound: CC1(C)OC(c2ccc(S(C)(=O)=O)cc2)=C(c2cccnc2)C1=O
observed-measurement: 164 to 166 °C

compound: CNC(C)=C(C#N)C(=O)c1ccc(Cl)cc1
observed-measurement: 152 °C

compound: O=C(Nc1cn(C2CCCCO2)nc1C(=O)NCCNc1ccccc1)c1ccccn1 (stereo not given)
observed-measurement: 182 to 183 °C

compound: O=C(Nc1ccc(-n2nc(C(F)(F)F)cc2C2CC2)c(F)c1)c1c(Cl)cncc1Cl
observed-measurement: 218 to 223 °C

compound: CC(C)C(=O)NC1CCc2c(c3cc(C#N)ccc3n2Cc2ncccc2F)C1 (stereo not given)
observed-measurement: 213 to 216 °C

compound: CCCc1c(OCCCCCCOc2ccc(C(=O)c3cccc(C(=O)OCC)c3)cc2CCC(=O)OCC)ccc2c1OCCC2=O
observed-measurement: 58 to 59.5 °C
